For each record, write down the corresponding pKa.
- Assay Method Text: Apparent pKa in LNPs by TNS titration
- Type: physicochemical
- Assay Setup: lipid nanoparticles (LNPs)
One number for each entry.

{"Compound": "CCCCC/C=C\\C/C=C\\CCCCCCCCOC(CCCCCCC/C=C\\C/C=C\\CCCCC)O[Si](C)(C)OCCCCCCN(C)CCO (centres unmarked)", "Measured Metric": "pKa", "Endpoint Value": 7.21}

Requested field: pKa. Item: CCCCC/C=C\C/C=C\CCCCCCCCOC(CCCCCCC/C=C\C/C=C\CCCCC)O[Si](C)(C)OCCCCCCN(CCO)CCO (centres unmarked) 7.73

----------
For each record, write down the corresponding Viability (%) at different lipid concentrations, mean.
- System: HepG2 cell line
- Assay Method Text: In vitro toxicity study on HepG2 cell line (resazurin, viability and IC50)
- Type: cell-based, human
- Assay Setup: HepG2 cells, 400 μM lipid, 48 h post-treatment, resazurin, relative to ethanol vehicle controls
For clarity, give the value followed by its unit.

Solved cases below.
{"Compound": "CCCCC/C=C\\C/C=C\\CCCCCCCCOC(CCCCCCC/C=C\\CCCCCCCC)O[Si](C)(C)OCCCCCCN(CCO)CCO (stereo not drawn)", "Endpoint Value": "99.8%"}
{"Compound": "CCCCC/C=C\\C/C=C\\CCCCCCCCOC(CCCCCCC/C=C\\C/C=C\\CCCCC)O[Si](C)(C)OCCCCCCN1CCCC1CO (stereo not drawn)", "Endpoint Value": "85.3%"}
{"Compound": "CCCCC/C=C\\C/C=C\\CCCCCCCCOC(CCCCCCC/C=C\\C/C=C\\CCCCC)O[Si](C)(C)OCCCCCCN(C)CCO (stereo not drawn)", "Endpoint Value": "89.5%"}
{"Compound": "CCCCCCCC/C=C\\CCCCCCCCOC(=O)C(C)(C)CC(OCCCCCCCC/C=C\\CCCCCCCC)O[Si](C)(C)OCCCCCCN(CCCCO)CCCCO (stereo not drawn)", "Endpoint Value": "57.1%"}
{"Compound": "CCCCC/C=C\\C/C=C\\CCCCCCCCOC(CCCCCCC/C=C\\C/C=C\\CCCCC)O[Si](C)(C)OCCCCCCN1CCOCC1 (stereo not drawn)", "Endpoint Value": "7.9%"}

--- query ---
Find the measured Viability (%) at different lipid concentrations, mean: item C#CCN(C)CCCCCCO[Si](C)(C)OC(CC(C)(C)C(=O)OCCCCCCCC/C=C\CCCCCCCC)OCCCCCCCC/C=C\CCCCCCCC (stereo not drawn) , target or system HepG2 cell line. 91.8%

----------
- System: HeLa cells
- Assay Method Text: Cell viability assessment with resazurin assay (Method A)
- Assay type: cell-based
- Assay Setup: human
Measured Metric: Cell Viability % (Average metabolic rate over all doses, Resazurin) (%)
Numbers only, in %.

{"Compound": "CCCCCCCC/C=C\\CCCCCCCCOC(=O)C(C)(C)CC(OCCCCCCCC/C=C\\CCCCCCCC)O[Si](C)(C)OCCCCCCN1CCCCC1CO (stereo not drawn)", "Endpoint Value": 96}

Field: Cell Viability % (Average metabolic rate over all doses, Resazurin). Fill in for each record below.
1. CCCCCCCC/C=C\CCCCCCCCOC(=O)C(C)(C)CC(OCCCCCCCC/C=C\CCCCCCCC)O[Si](C)(C)OCCCCCCN(C)CCO (stereo not drawn)
2. CCCCCCCC/C=C\CCCCCCCCOC(=O)C(C)(C)CC(OCCCCCCCC/C=C\CCCCCCCC)O[Si](C)(C)OCCCCCCN(CCO)CCN(CCO)CCCCCCO[Si](C)(C)OC(CC(C)(C)C(=O)OCCCCCCCC/C=C\CCCCCCCC)OCCCCCCCC/C=C\CCCCCCCC (stereo not drawn)

[106, 104]

Field: Cell Viability % (Average metabolic rate over all doses, Resazurin). Fill in for each record below.
1. CCCCCCCC/C=C\CCCCCCCCOC(=O)C(C)(C)CC(OCCCCCCCC/C=C\CCCCCCCC)O[Si](C)(C)OCCCCCCN(C)CCCCO (stereo not drawn)
2. CCCCCCCC/C=C\CCCCCCCC(OCCCCCCCCCCCCCCCC)O[Si](C)(C)OCCCCCCN(CCO)CCO (stereo not drawn)
3. CCCCCCCC/C=C\CCCCCCCC(OCCCCCCCCCCCCCCC(C)C)O[Si](C)(C)OCCCCCCN(CCO)CCO (stereo not drawn)

105
98
110

----------
For each record, write down the corresponding Cell Viability % (Average metabolic rate over all doses, Resazurin).
- System: HeLa cells
- Assay Method Text: Cell viability assessment with resazurin assay (Method A)
- Assay type: cell-based
- Assay Setup: human
Give bare numbers, in %.

Field: Cell Viability % (Average metabolic rate over all doses, Resazurin). Fill in for each record below.
1. CCCCC/C=C\C/C=C\CCCCCCCCOC(CCCCCCC/C=C\C/C=C\CCCCC)O[Si](C)(C)OCCCCCCN1CCCCC1 (stereo not shown)
2. C#CCN(C)CCCCCCO[Si](C)(C)OC(CC(C)(C)C(=O)OCCCCCCCC/C=C\CCCCCCCC)OCCCCCCCC/C=C\CCCCCCCC (stereo not shown)
3. CCCCCCCC/C=C\CCCCCCCC(OCCCCCCCCCCCC1CCCCC1)O[Si](C)(C)OCCCCCCN(CCO)CCO (stereo not shown)
4. CCCCCCCCCCCCCCCCOC(CCCCCCCCCCCCCCC)O[Si](C)(C)OCCCCCCN(CCO)CCO (stereo not shown)
5. CCCCCCCC/C=C\CCCCCCCCOC(=O)C(C)(C)CC(OCCCCCCCC/C=C\CCCCCCCC)O[Si](C)(C)OCCCCCCN1CCCC1CO (stereo not shown)

[99, 109, 107, 93, 106]

Field: Cell Viability % (Average metabolic rate over all doses, Resazurin). Fill in for each record below.
1. CCCCC/C=C\C/C=C\CCCCCCCCOC(CCCCCN(C)CC(O)CO)O[Si](C)(C)OCCCCCCCC/C=C\C/C=C\CCCCC (stereo not shown)
2. CCCCC/C=C\C/C=C\CCCCCCCCOC(CCCCCCC/C=C\C/C=C\CCCCC)O[Si](C)(C)OCCCCCCN(C)CCCCO (stereo not shown)
3. CCCCC/C=C\C/C=C\CCCCCCCCOC(CCCCCCC/C=C\C/C=C\CCCCC)O[Si](C)(C)OCCCCCCN1CCN(CCCCCCO[Si](C)(C)OC(CCCCCCC/C=C\C/C=C\CCCCC)OCCCCCCCC/C=C\C/C=C\CCCCC)CC1 (stereo not shown)
4. CCCCC/C=C\C/C=C\CCCCCCCCOC(CCCCCCC/C=C\C/C=C\CCCCC)O[Si](C)(C)OCCCCCCN(C)CCO (stereo not shown)
5. CCCCC/C=C\C/C=C\CCCCCCCCOC(CCCCCCC/C=C\CCCCCCCC)O[Si](C)(C)OCCCCCCN(CCO)CCO (stereo not shown)
6. CCCCC/C=C\C/C=C\CCCCCCCCOC(CCCCCCC/C=C\C/C=C\CCCCC)O[Si](C)(C)OCCCCCCN1CCOCC1 (stereo not shown)
7. CCCCC/C=C\C/C=C\CCCCCCCCOC(CCCCCCC/C=C\C/C=C\CCCCC)O[Si](C)(C)OCCCCCCN(C)[C@H](CO)Cc1ccccc1 (stereo partly shown)
8. CCCCCCCC/C=C\CCCCCCCCOC(CC[C@@H](C)C1CCC2C3CCC4C[C@H](OC)CC[C@]4(C)C3CC[C@@]21C)O[Si](C)(C)OCCCCCCN(CCO)CCO (stereo partly shown)

1. 91
2. 88
3. 99
4. 93
5. 95
6. 91
7. 112
8. 92

----------
- System: HepG2 cell line
- Assay Method Text: In vitro toxicity study on HepG2 cell line (resazurin, viability and IC50)
- Type: cell-based, human
- Assay Setup: HepG2 cells, 25 μM lipid, 48 h post-treatment, resazurin, relative to ethanol vehicle controls
For each record, write down the corresponding Viability (%) at different lipid concentrations, mean.
Give bare numbers, in %.

{"Compound": "CCCCC/C=C\\C/C=C\\CCCCCCCCO[Si](C)(C)OC(CCCCCCC/C=C\\C/C=C\\CCCCC)OCCCN(C)C (stereo not shown)", "Value Units": "%", "Endpoint Value": 98.64}
{"Compound": "CCCCC/C=C\\C/C=C\\CCCCCCCCOC(CCCCCCC/C=C\\C/C=C\\CCCCC)O[Si](C)(C)OCCCCCCN1CCCCC1CO (stereo not shown)", "Value Units": "%", "Endpoint Value": 100.3}
{"Compound": "C#CCN(C)CCCCCCO[Si](C)(C)OC(CCCCCCC/C=C\\C/C=C\\CCCCC)OCCCCCCCC/C=C\\C/C=C\\CCCCC (stereo not shown)", "Value Units": "%", "Endpoint Value": 99.5}

--- query ---
Requested field: Viability (%) at different lipid concentrations, mean. Item: CCCCCCCC/C=C\CCCCCCCCOC(=O)C(C)(C)CC(OCCCCCCCC/C=C\CCCCCCCC)O[Si](C)(C)OCCCCCCN1CCCCC1CO (stereo not shown) 97.9
